# assay-overview: basal CRE-LacZ reporter activity in PC12 – cell-based, unstimulated, primary screen (AID 1145)
# assay-conditions: no forskolin, luminescence, 4.5 h, higher = more signal, called active from +8 up or from −8 down
Active and inactive are the calls of the source.
Entries and their measured z-score follow.

compound	z-score
CCCC(=O)N(CCc1c[nH]c2ccccc12)[C@@H]1CC(C(=O)NCCO)=C[C@H](Oc2c(I)cc(CO)cc2OC)[C@H]1O	0.486 (inactive)
CCOc1cc(C(O)C2C=CC3C(=O)N(c4ccccc4)C(=O)C3N2Nc2ccc(C(C)C)cc2)ccc1O (stereo not drawn)	1.96 (inactive)
C[N+](C)(C)CCCCCCNC(=O)[C@H]1C[C@H]2C(=O)N[C@@H](Cc3ccccc3)C(=O)N2[C@H]1c1cccc(OCCO)c1	-0.252 (inactive)
O=C1N(CCS(=O)(=O)c2ccccc2)c2ccccc2[C@@H]2OC(c3ccc(OCCCO)cc3)=N[C@]12Cc1ccccc1	1.26 (inactive)

Query block: Which z-score is reported for this compound? [N-]=[N+]=NCc1ccccc1C[C@@]1(C(=O)NCC(O)CO)N=C(c2ccc(OCCCO)cc2)O[C@@H]1c1ccccc1 (stereo partly drawn)
Result block: 1.8 (inactive)
